Cited source: PubChem BioAssay (NCI)

Recorded growth for the following molecules
# System: HOP-92 NSCLC
# assay_remarks: NCI-60 one-dose screen, 48 h (100 = growth as untreated, 0 = no growth, -100 = all killed)
# condition_description: 10 µM unless noted
This is part of a sample that, as a whole, favours compounds with a hit. Of some 83,000 tested, about 20% had one in any assay. Calls of active or inactive are those of the source. The calls were made as follows: active = growth percent below 10; inactive = the rest.

The examples below pair each entry with its known result.
COc1ccc(/C=N\NC(=O)CN2CCN(c3cc4c(cc3F)c(=O)c(C(=O)N/N=C/c3ccc(OC)cc3)cn4C3CC3)CC2)cc1; 92.1% (inactive)
COC1C/C(=N\O)C2OC(c3ccccc3)OCC2O1 (stereo not given); 90.7% (inactive)
Cc1ccc(Nc2nc(N)nc(Nc3ccc4ccccc4c3)n2)cc1; 21.1% (inactive)
CCN(CC)c1ccc(/C=C/C2=[N+](C)c3ccccc3C2(C)C)cc1; -10.7% (active)

Prompt line: GET growth | system: HOP-92 NSCLC | item: CC(=O)/C(=C/c1cccc(Cl)c1)C(=O)c1ccccc1
Response line: 88.7% (inactive)

Prompt line: GET growth | system: HOP-92 NSCLC | item: C[C@@H]1CC[C@@H]2[C@@H]1[C@H](OC(=O)/C=C/c1ccccc1)[C@]1(C3CCCCC3)C[C@@H](OC(=O)CO)[C@@]2(C)O1
Response line: 55.3% (inactive)

Prompt line: GET growth | system: HOP-92 NSCLC | item: Cc1ccc(Nc2c(C(N)=O)cnc3ccc(-c4csc(N)n4)cc23)cc1
Response line: 90.2% (inactive)

Prompt line: GET growth | system: HOP-92 NSCLC | item: CCOC(=O)CC(=O)c1c(C)cc(C)cc1C
Response line: 111% (inactive)

Prompt line: GET growth | system: HOP-92 NSCLC | item: Cc1ccc(SCN2CCN(c3cccc(Cl)c3)CC2)cc1
Response line: 89.7% (inactive)

Prompt line: GET growth | system: HOP-92 NSCLC | item: CS(CCCCN=C=S)=NC(=O)c1c(F)c(F)c(F)c(F)c1F (stereo not given)
Response line: 80.8% (inactive)
